A collection of molecules and their measured activation at 1 µM
target-of-assay: récepteur chimère Gal-PPARα (Homo sapiens, UniProt Q07869)
Sequence (Q07869 167-468): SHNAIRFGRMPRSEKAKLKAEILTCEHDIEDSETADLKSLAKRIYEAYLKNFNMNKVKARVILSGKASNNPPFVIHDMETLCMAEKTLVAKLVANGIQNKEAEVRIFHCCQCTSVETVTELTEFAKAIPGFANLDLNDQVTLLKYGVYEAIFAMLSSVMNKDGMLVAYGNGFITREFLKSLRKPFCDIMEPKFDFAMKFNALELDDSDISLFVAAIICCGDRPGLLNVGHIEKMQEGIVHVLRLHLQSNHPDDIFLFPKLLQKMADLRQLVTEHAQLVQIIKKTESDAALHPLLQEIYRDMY
method-description: Transactivation test, same protocol with chimeric receptor Gal-PPARα
Format: cell-based
experimental-conditions: 24 h; compound at 1 microM; percent of activation relative to reference agonist (Wy 14643 = 100%); Hela cells; read-out: % d'activation (à 1 microM) PPARα

molecule: CCO[C@@H](Cc1ccc(-c2cccc(CN(C)C(=O)c3ccc4cc(OCOCCOC)ccc4c3)c2)cc1)C(=O)O [Composé de l'exemple 23]
activation at 1 µM / %: 11.9

molecule: CN(Cc1cccc(-c2ccc(CC3SC(=O)NC3=O)cc2)c1)C(=O)c1ccc2cc(O)ccc2c1 (stereo not drawn) [Composé de l'exemple 17]
activation at 1 µM / %: 15.1

molecule: CSc1ccc(C(=O)N(C)Cc2cccc(-c3ccc(CC4SC(=O)NC4=O)cc3)c2)cc1 (stereo not drawn) [Composé de l'exemple 18]
activation at 1 µM / %: 37.3

molecule: CN(Cc1cccc(-c2ccc(CC3SC(=O)NC3=O)cc2)c1)C(=O)C12CC3CC(CC(C3)C1)C2 (stereo not drawn) [Composé de l'exemple 9]
activation at 1 µM / %: 4.3

molecule: CN(Cc1cccc(-c2ccc(CC3SC(=O)NC3=O)cc2)c1)C(=O)COc1ccccc1 (stereo not drawn) [Composé de l'exemple 7]
activation at 1 µM / %: 37.8

molecule: COC(=O)c1ccc(C(=O)N(C)Cc2cccc(-c3ccc(CC4SC(=O)NC4=O)cc3)c2)cc1 (stereo not drawn) [Composé de l'exemple 3]
activation at 1 µM / %: 22.3

meta.source: patent EP1458697B1
